- PROCEDURE TEXT: clinical
- CONDITION SET: human, in vivo, po, 2 mg
READOUT LABEL: half-life (h)
// units = h; emit number, no label

Query block: Tell me measured half-life for O=C(CC1NCCCC1O)Cn1cnc2cc(Br)c(Cl)cc2c1=O (stereo not shown) please.
Result block: 37.2
